Assay: ATG_XTT_Cytotoxicity: Cytotoxicity Assessment in the Attagene TRANS-FACTORIAL HepG2 Assay (AID 2283584)
Records with an inconclusive call do not appear. Calls of active or inactive are those of the source. Rule for the calls: active = hit-call score of the fitted dose curve at least 0.9, where 1 is the maximum; inconclusive = response in the unintended direction; inactive = score below 0.9.
Please state which outcome applies, choosing from yes (1) (active), no (0) (inactive)

IN: # outcome recorded in this test, key = `CCC(=O)Nc1ccc(Cl)c(Cl)c1`
OUT: no (0)

IN: Record request — test call for CCc1cccc(C)c1N(C(=O)CCl)C(C)COC (stereo not given)
OUT: no (0)

IN: I'd appreciate the recorded outcome for `O=[N+]([O-])c1cc(C(F)(F)F)c(Cl)c([N+](=O)[O-])c1Nc1ncc(C(F)(F)F)cc1Cl` from this test.
OUT: yes (1)

IN: How was `COc1ccc(C(=CC(=O)N2CCOCC2)c2ccc(Cl)cc2)cc1OC` classified in this test?
OUT: no (0)

IN: Query: recorded result category for `CCC(CC)Nc1c([N+](=O)[O-])cc(C)c(C)c1[N+](=O)[O-]` in this test
OUT: no (0)

----------
Target: human CYP19A1, CYP19A1 (gene 1588)
Test: NVS_ADME_hCYP19A1: NovaScreen (NVS) CYP450-related Enzyme Activity (ADME) Assay for human CYP19A1 (AID 2283098)
Results filed as inconclusive are left out. The source made the active and inactive calls. The calls were made as follows: active = hit-call score of the fitted dose curve at least 0.9, where 1 is the maximum; inconclusive = response in the unintended direction; inactive = score below 0.9.
Returns: one label drawn from 1 = active, -1 = inactive

IN: Name the outcome recorded for `S=C1NCCN1` in the assay.
OUT: -1

IN: For `CNC(=O)ON=C(C)SC` , what call appears in the results of this test?
OUT: -1

IN: Hi, do you know how `CC(C)[C@H](C(=O)O[C@H](C#N)c1cccc(Oc2ccccc2)c1)c1ccc(Cl)cc1` came out in this test?
OUT: -1

IN: State the result this test recorded for `CCOP(=O)(OCC)Oc1cc(C)nc(C(C)C)n1` .
OUT: -1

IN: What did this assay record as the result for `C[Si](Cn1cncn1)(c1ccc(F)cc1)c1ccc(F)cc1` ?
OUT: 1

IN: Recorded test outcome, item `COc1ccc(C(=CC(=O)N2CCOCC2)c2ccc(Cl)cc2)cc1OC`
OUT: 1

IN: # outcome recorded in this test, key = `CNc1cnn(-c2cccc(C(F)(F)F)c2)c(=O)c1Cl`
OUT: -1

IN: Record lookup: outcome of this test for COP(=O)(NC(C)=O)SC (stereo not drawn) ?
OUT: -1

IN: Called result for `C=C(C)[C@H]1Cc2c(ccc3c2O[C@@H]2COc4cc(OC)c(OC)cc4[C@@H]2C3=O)O1`
OUT: -1

IN: Given CC(C1CC1)C(O)(Cn1cncn1)c1ccc(Cl)cc1 (stereo not drawn) , state the outcome it received in this test.
OUT: 1

IN: So what was the verdict on CCOC(=O)CC(SP(=O)(OC)OC)C(=O)OCC (stereo not drawn) in this test?
OUT: -1

IN: Hi team, can someone confirm the assay call for FC(F)C(F)(F)OCC(Cn1cncn1)c1ccc(Cl)cc1Cl (stereo not drawn) ?
OUT: 1

IN: Call for entry `CCCOCC(=Nc1ccc(Cl)cc1C(F)(F)F)n1ccnc1` :
OUT: 1

----------
Read-out: Pyruvate Dehydrogenase Kinase 4 (PDK4), PDK4 (gene 5166)
Experiment: LTEA_HepaRG_PDK4: Life Technologies and Expression Analysis (LTEA) Assay for Pyruvate Dehydrogenase Kinase 4 (PDK4) using HepaRG (AID 2283525)
Conditions: mRNA level, 48 h; actives raise or lower the signal
The source made the active and inactive calls. Rule for the calls: active = hit-call score of the fitted dose curve at least 0.9, where 1 is the maximum; inactive = score below 0.9.
Answer with one of the outcomes given here: 1 for active, 0 for inactive

IN: What is the recorded call for this compound in the test? `N#CSCSC#N`
OUT: 0

IN: What was the test verdict on `C=C(C)[C@H]1Cc2c(ccc3c2O[C@@H]2COc4cc(OC)c(OC)cc4[C@@H]2C3=O)O1` ?
OUT: 1

IN: What is the recorded call for this compound in the test? `CCCCN(CC)c1c([N+](=O)[O-])cc(C(F)(F)F)cc1[N+](=O)[O-]`
OUT: 0

IN: // outcome(item) with item = `C[Si](Cn1cncn1)(c1ccc(F)cc1)c1ccc(F)cc1`
OUT: 0

IN: In this assay, the call recorded for CCOP(=O)(NC(C)C)Oc1ccc(SC)c(C)c1 (configuration not stated) was what?
OUT: 0

IN: What classification did `CCCCSP(=O)(SCCCC)SCCCC` end up with in this test?
OUT: 1

IN: Field: outcome | Entry: CCOP(=O)(SC(C)CC)N1CCSC1=O (configuration not stated)
OUT: 1

IN: Could you please tell me the result logged for `CN1COCN(Cc2cnc(Cl)s2)C1=N[N+](=O)[O-]` in this assay?
OUT: 0

IN: What classification did `CCCCOC(=O)c1ccccc1C(=O)O` end up with in this test?
OUT: 0

IN: // return assay outcome for `CCC(CC)Nc1c([N+](=O)[O-])cc(C)c(C)c1[N+](=O)[O-]`
OUT: 0

IN: Which outcome was assigned to `CNC(=O)ON=C(SC)C(=O)N(C)C` in this test?
OUT: 0

IN: Name the outcome recorded for `C[N+]1(C)CCCCC1` in the assay.
OUT: 0

IN: Could you check what this test reported for `CC(C)N(C(=O)SCC(Cl)=C(Cl)Cl)C(C)C` ?
OUT: 0

IN: Lab log entry: `CC(C)[C@H](C(=O)O[C@H](C#N)c1cccc(Oc2ccccc2)c1)c1ccc(Cl)cc1` — outcome as called in the assay?
OUT: 0

IN: Recorded test call requested for CCOP(=S)(Oc1cnc(C(C)(C)C)nc1)OC(C)C (configuration not stated)
OUT: 1

IN: Hey, what did the test say about `S=C1NCCN1` ?
OUT: 0

IN: Which result was noted for this compound in the test: `CNc1cnn(-c2cccc(C(F)(F)F)c2)c(=O)c1Cl`
OUT: 0

IN: # fetch the recorded call for `O=c1ccc(=O)[nH][nH]1` here
OUT: 0

IN: Fill in: this test's call for `CCOP(=S)(OCC)SCCSCC` is ___
OUT: 0

IN: Check the results log: what was the call for `CSC1=N[C@@](C)(c2ccccc2)C(=O)N1Nc1ccccc1` ?
OUT: 1

IN: Called result for COP(=O)(NC(C)=O)SC (configuration not stated)
OUT: 0

IN: GET /call?item= `CSc1nc(NC(C)C)nc(NC(C)C)n1` returns the recorded outcome of this test.
OUT: 0

IN: // return assay outcome for COP(=O)(OC)OC(Br)C(Cl)(Cl)Br (configuration not stated)
OUT: 0

IN: Would you mind telling me which call this test gave CCOC(=O)CC(SP(=O)(OC)OC)C(=O)OCC (configuration not stated) ?
OUT: 1

IN: Entry `C#CC(C)(C)NC(=O)c1cc(Cl)cc(Cl)c1` : call = ?
OUT: 0

IN: // return assay outcome for `CNC(=O)Oc1cccc2c1OC(C)(C)O2`
OUT: 0

IN: State the result this test recorded for `Cc1nn(-c2cc(NS(C)(=O)=O)c(Cl)cc2Cl)c(=O)n1C(F)F` .
OUT: 0

----------
Assay: CCTE_Shafer_MEA_acute_per_network_burst_spike_number_mean: CCTE's Neural Acute Assay for Average Number of Spikes in a Network Burst, Shafer Lab (AID 2284019)
Activity calls are given as the source filed them. Rule for the calls: active = hit-call score of the fitted dose curve at least 0.9, where 1 is the maximum; inactive = score below 0.9.
Returns: one label drawn from active, inactive

IN: Could you check what this test reported for `C[Si](Cn1cncn1)(c1ccc(F)cc1)c1ccc(F)cc1` ?
OUT: inactive

IN: Could you kindly confirm the outcome this assay logged for COP(=O)(OC)C(O)C(Cl)(Cl)Cl (stereo not drawn) ?
OUT: active

IN: Recorded test outcome, item `CSC1=N[C@@](C)(c2ccccc2)C(=O)N1Nc1ccccc1`
OUT: inactive

IN: Can you look up the reported call for `CC(=NC#N)N(C)Cc1ccc(Cl)nc1` for me?
OUT: inactive

IN: Given CCOP(=O)(NC(C)C)Oc1ccc(SC)c(C)c1 (stereo not drawn) , state the outcome it received in this test.
OUT: inactive

IN: Please let me know the test result on file for CCc1cccc(C)c1N(C(=O)CCl)C(C)COC (stereo not drawn) .
OUT: inactive

IN: How was `O=[N+]([O-])c1cc(C(F)(F)F)c(Cl)c([N+](=O)[O-])c1Nc1ncc(C(F)(F)F)cc1Cl` classified in this test?
OUT: active

IN: Which outcome did this test record for the molecule `CCOP(=S)(OCC)SCCSCC` ?
OUT: inactive

----------
Assay: BSK_SAg_SRB: Viability Assessment in the BioMAP Diversity Plus: SAg Assay (AID 2283096);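 note: cells read one day after compound addition; hits may be either gain or loss of signal compared with DMSO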
Settings: primary human HUVEC with PBMC
Activity calls are given as the source filed them. The calls were made as follows: active = hit-call score of the fitted dose curve at least 0.9, where 1 is the maximum; inactive = score below 0.9.
# output must be one of 1 for active, -1 for inactive

IN: Recorded test call requested for `CCOP(=S)(OCC)SCCSCC`
OUT: -1

IN: Would you mind telling me which call this test gave `C=C(C)[C@H]1Cc2c(ccc3c2O[C@@H]2COc4cc(OC)c(OC)cc4[C@@H]2C3=O)O1` ?
OUT: 1

IN: Hello, I am checking results. What call was entered for `CCCSP(=O)(OCC)SCCC` ?
OUT: -1

IN: Please state the recorded outcome for this molecule: `CC1=NNC(=O)N(/N=C/c2cccnc2)C1`
OUT: -1

IN: Dear colleague, could you share the recorded outcome for `CCc1cccc(CC)c1N(COC)C(=O)CCl` when you have a moment?
OUT: 1

IN: Test call, this molecule: `C[Si](Cn1cncn1)(c1ccc(F)cc1)c1ccc(F)cc1`
OUT: -1

IN: Test call for this molecule, please: `Nc1nc(N)nc(NC2CC2)n1`
OUT: -1
